- Assayed target: ERα (Homo sapiens)
- Sequence (P03372 whole entry): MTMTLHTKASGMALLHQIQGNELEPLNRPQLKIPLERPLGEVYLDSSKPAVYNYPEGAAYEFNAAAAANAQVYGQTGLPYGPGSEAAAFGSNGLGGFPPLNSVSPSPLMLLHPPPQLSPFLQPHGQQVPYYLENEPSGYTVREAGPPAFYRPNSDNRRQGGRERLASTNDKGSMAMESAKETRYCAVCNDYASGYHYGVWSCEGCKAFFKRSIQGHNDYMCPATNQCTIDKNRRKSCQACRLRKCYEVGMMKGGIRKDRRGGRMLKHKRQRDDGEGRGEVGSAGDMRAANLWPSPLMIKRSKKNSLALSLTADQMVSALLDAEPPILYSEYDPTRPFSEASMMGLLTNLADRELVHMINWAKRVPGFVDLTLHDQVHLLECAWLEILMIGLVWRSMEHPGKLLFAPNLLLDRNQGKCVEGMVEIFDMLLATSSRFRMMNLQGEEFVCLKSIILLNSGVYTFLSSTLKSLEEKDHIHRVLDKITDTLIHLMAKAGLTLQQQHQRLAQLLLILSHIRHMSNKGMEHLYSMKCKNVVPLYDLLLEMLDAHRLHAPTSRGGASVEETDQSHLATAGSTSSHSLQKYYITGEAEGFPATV
- Assay text: Degradation of ERα in T-47D cells (immunoblotting, 4 h)
- Type: cell-based
- Set-up: host or cells: T-47D
- Test context: 1nM compound
Lab note: cut-off is 60%. Strictly less in Degradation rate (%) of ERα in T-47D cells is condition met. Exactly 60% or more is condition not met.

Compound: C[C@@H]1CN(C(=O)C2CCN(c3cc(F)c(C4c5ccc(O)cc5C[C@@H](C)N4CC(F)F)c(F)c3)CC2)CCC1N1CCC2(CC1)COc1c2ccc2c1CN(C1CCC(=O)NC1=O)C2=O (some centres unmarked)
Class assignment: condition met
//
Compound: O=C1CCC(N2Cc3c(ccc4c3OCC43CCN(CC(=O)N4CC5(CCN(c6ccc([C@@H]7c8ccc(O)cc8CC[C@@H]7c7ccccc7)cc6)CC5)C4)CC3)C2=O)C(=O)N1 (some centres unmarked)
Class assignment: condition not met
//
Compound: CN(CC(=O)N1CCC2(CC1)COc1c2ccc2c1CN(C1CCC(=O)NC1=O)C2=O)CC1CCN(c2ccc([C@@H]3c4ccc(O)cc4CC[C@@H]3c3ccccc3)cc2)CC1 (some centres unmarked)
Class assignment: condition not met
//
Compound: O=C1CCC(N2Cc3c(ccc4c3OCC43CCN(C4CCN(C5CC6(CCN(c7ccc([C@@H]8c9ccc(O)cc9CC[C@@H]8c8ccccc8)cc7)CC6)C5)[C@@H](C(=O)NC5CC5)C4)CC3)C2=O)C(=O)N1 (some centres unmarked)
Class assignment: condition not met
//
Compound: O=C1CCC(N2Cc3c(ccc4c3OCC43CCN(C4CCN(C(=O)C5CCN(c6ccc([C@@H]7c8ccc(O)cc8CC[C@@H]7c7ccccc7)cc6)CC5)CC4F)CC3)C2=O)C(=O)N1 (some centres unmarked)
Class assignment: condition met
//
Compound: O=C1CCC(N2Cc3cc4c(cc3C2=O)OCC2(CCN(CC3CCC5(CC3)CCN(c3ccc([C@@H]6c7ccc(O)cc7CC[C@@H]6c6ccccc6)cc3)CC5)CC2)O4)C(=O)N1 (some centres unmarked)
Class assignment: condition met
//
Compound: O=C1CCC(N2Cc3c(ccc4c3OCC43CCN(C(=O)C4CCN(CC5CCN(c6ccc([C@@H]7c8ccc(O)cc8CC[C@@H]7c7ccccc7)cc6)CC5)CC4)CC3)C2=O)C(=O)N1 (some centres unmarked) [J8]
Class assignment: condition not met
//
Compound: C[C@@H]1Cc2c([nH]c3ccccc23)[C@@H](c2c(F)cc(N3CCC4(CCN(CC(=O)N5CCC6(CC5)COc5c6ccc6c5CN(C5CCC(=O)NC5=O)C6=O)CC4)CC3)cc2F)N1CC(F)F (some centres unmarked)
Class assignment: condition met
//
Compound: O=C1CCC(N2Cc3c(ccc4c3OCC43CCN(C4CC5(C4)CC4(CCN(c6ccc([C@@H]7c8ccc(O)cc8CC[C@@H]7c7ccccc7)cc6)CC4)C5)CC3)C2=O)C(=O)N1 (some centres unmarked)
Class assignment: condition met
//
Compound: O=C1CCC(N2Cc3c(ccc4c3OCC43CCN(C(=O)C4CCC5(CC4)CN(c4ccc([C@@H]6c7ccc(O)cc7CC[C@@H]6c6ccccc6)cc4)C5)CC3)C2=O)C(=O)N1 (some centres unmarked)
Class assignment: condition met

From: patent EP4656642A1
